Attribute: pKi
- experimental_system: rat cortex A1 receptor (Rattus norvegicus, UniProt P25099)
- Construct: from tissue; host or cells: rat cortex
- assay_method_text: Displacement of 3H-DPCPX from the rat cortex A1 receptor
- Type: binding
- condition_set: pH 7.4; read-out: Ki Low affinity
pKi: −log10 of the molar value.
measured_property: pKi

compound	endpoint_result
Nc1nc(Cl)nc2c1ncn2[C@@H]1O[C@H](CO)[C@@H](O)[C@H]1O [2-chloroadenosine, reference compound]	5.78
Nc1nc(Cl)nc2c1ncn2[C@@H]1O[C@H](CO)C[C@H]1O	4.94

* * *

- experimental_system: human A1 receptor (Homo sapiens, UniProt P30542)
- Sequence (P30542 whole entry): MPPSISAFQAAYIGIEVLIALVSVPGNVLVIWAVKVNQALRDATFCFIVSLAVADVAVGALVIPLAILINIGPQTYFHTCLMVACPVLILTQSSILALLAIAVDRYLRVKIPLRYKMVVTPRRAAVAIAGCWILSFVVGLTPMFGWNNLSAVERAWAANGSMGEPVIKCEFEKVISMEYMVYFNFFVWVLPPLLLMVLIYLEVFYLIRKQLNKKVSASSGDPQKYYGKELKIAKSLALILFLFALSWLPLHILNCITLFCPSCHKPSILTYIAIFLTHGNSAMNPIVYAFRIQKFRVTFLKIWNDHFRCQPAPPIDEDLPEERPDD
- assay_method_text: Displacement of [3H]-DPCPX from the human A1 receptor
- Type: binding
- condition_set: pH 7.4; read-out: Ki high affinity sites
pKi: −log10 of the molar value.
measured_property: pKi

structure_smiles	measured_property	endpoint_result
COc1nc(N)c2ncn([C@@H]3O[C@H](CO)C[C@H]3O)c2n1	pKi	6.80

* * *

- experimental_system: UniProtKB P30543
- assay_method_text: biochemical
- condition_set: Ki, pH5.5; one affinity state

compound	units	Ki
Nc1nc(Nc2ccccc2)nc2c1ncn2[C@@H]1O[C@H](CO)[C@@H](O)[C@H]1O [CV1808, 2-phenylamino-adenosine, reference compound]	nM	35

* * *

- experimental_system: rat cortex A1 receptor (Rattus norvegicus)
- Construct: from tissue; host or cells: rat cortex
- assay_method_text: Displacement of 3H-DPCPX from the rat cortex A1 receptor
- Format: binding
- condition_set: pH 6.2; read-out: Ki High affinity
Attribute: Ki

molecule	Ki (nM)
Nc1nc(Cl)nc2c1ncn2[C@@H]1O[C@H](CO)C[C@H]1O	17
Nc1nc(Cl)nc2c1ncn2[C@@H]1O[C@H](CO)[C@@H](O)[C@H]1O [2-chloroadenosine, reference compound]	3.7

* * *

- experimental_system: rat striatal A2A receptor (Rattus norvegicus, UniProt P30543)
- Sequence (P30543 whole entry): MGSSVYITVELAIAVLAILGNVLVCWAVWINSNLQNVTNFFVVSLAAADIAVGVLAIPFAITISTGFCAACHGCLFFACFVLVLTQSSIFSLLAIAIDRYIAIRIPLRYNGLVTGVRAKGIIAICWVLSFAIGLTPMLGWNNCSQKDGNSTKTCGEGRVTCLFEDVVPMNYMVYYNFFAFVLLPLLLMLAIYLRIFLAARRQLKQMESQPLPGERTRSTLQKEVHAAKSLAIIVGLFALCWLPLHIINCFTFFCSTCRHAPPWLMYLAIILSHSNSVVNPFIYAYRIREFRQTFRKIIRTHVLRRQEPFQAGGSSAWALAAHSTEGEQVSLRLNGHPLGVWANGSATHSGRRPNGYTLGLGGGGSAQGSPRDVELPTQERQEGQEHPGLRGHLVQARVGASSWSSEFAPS
- assay_method_text: biochemical
- condition_set: Ki High affinity, pH 5.5
pKi: −log10 of the molar value.

structure_smiles	pKi
COc1nc(N)c2ncn([C@@H]3O[C@H](CO)[C@@H](O)[C@H]3O)c2n1	7.92
CCOc1nc(N)c2ncn([C@@H]3O[C@H](CO)[C@@H](O)[C@H]3O)c2n1	8.55

* * *

Attribute: pKi
- experimental_system: rat cortex A1 receptor (Rattus norvegicus)
- Construct: from tissue; host or cells: rat cortex
- Sequence (P25099 1-326): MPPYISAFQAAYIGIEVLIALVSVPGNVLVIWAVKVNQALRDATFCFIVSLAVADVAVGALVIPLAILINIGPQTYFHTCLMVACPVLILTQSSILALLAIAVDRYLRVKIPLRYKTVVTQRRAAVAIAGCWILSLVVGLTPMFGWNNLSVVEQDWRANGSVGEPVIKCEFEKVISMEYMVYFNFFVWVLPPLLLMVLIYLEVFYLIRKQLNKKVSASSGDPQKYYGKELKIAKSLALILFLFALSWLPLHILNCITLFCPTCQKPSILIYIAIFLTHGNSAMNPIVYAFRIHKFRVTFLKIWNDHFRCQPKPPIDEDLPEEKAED
- assay_method_text: Displacement of 3H-DPCPX from the rat cortex A1 receptor
- Type: binding
- condition_set: pH 7.4; read-out: Ki High affinity
pKi: −log10 of the molar value.

molecule	experimental_system	pKi
Nc1nc(Cl)nc2c1ncn2[C@@H]1O[C@H](CO)C[C@H]1O	rat cortex A1 receptor (Rattus norvegicus)	6.64
Nc1nc(Cl)nc2c1ncn2[C@@H]1O[C@H](CO)[C@@H](O)[C@H]1O [2-chloroadenosine, reference compound]	rat cortex A1 receptor (Rattus norvegicus)	8.36
